The origin of these recorded values is ChEMBL document CHEMBL4609973.

Assay: Drug excretion in human feces assessed as ombitasvir level
Format: ADME, tissue-based
Conditions: faeces, read-out: Drug excretion
READOUT_NAME: dose excreted (%)
Dear colleague, please return just the value in %, with no unit written.

[Q] // query dose excreted value for entry `COC(=O)N[C@H](C(=O)N1CCC[C@H]1C(=O)Nc1ccc([C@@H]2CC[C@@H](c3ccc(NC(=O)[C@@H]4CCCN4C(=O)[C@@H](NC(=O)OC)C(C)C)cc3)N2c2ccc(C(C)(C)C)cc2)cc1)C(C)C`
[A] 90.2

###

Test: Half life in human
Assay type: ADME
READOUT_NAME: log10(half-life) (log10 of the value in min)
Base-10 log of half-life, unit min.

Consider the worked cases shown below.
- COMPOUND: "CC(C)(C)[C@@H]1NC(=O)O[C@@H]2CCC[C@H]2OC/C=C/C(F)(F)c2nc3ccccc3nc2O[C@@H]2C[C@@H](C(=O)N[C@]3(C(=O)NS(=O)(=O)C4(C)CC4)C[C@H]3C(F)F)N(C2)C1=O [GLECAPREVIR]"
  READOUT_NAME: "log10(half-life)"
  NUMERIC_RESULT: 2.56
- COMPOUND: "CC(C)OC(=O)[C@H](C)N[P@](=O)(OC[C@H]1O[C@@H](n2ccc(=O)[nH]c2=O)[C@](C)(F)[C@@H]1O)Oc1ccccc1 [SOFOSBUVIR]"
  READOUT_NAME: "log10(half-life)"
  NUMERIC_RESULT: 1.38
- COMPOUND: "C=C[C@@H]1C[C@]1(NC(=O)[C@@H]1C[C@@H]2CN1C(=O)[C@H](C(C)(C)C)NC(=O)O[C@@H]1C[C@H]1CCCCCc1nc3ccc(OC)cc3nc1O2)C(=O)NS(=O)(=O)C1CC1 [GRAZOPREVIR ANHYDROUS]"
  READOUT_NAME: "log10(half-life)"
  NUMERIC_RESULT: 3.27
- COMPOUND: "COC(=O)N[C@H](C(=O)N1CC2(CC2)C[C@H]1c1ncc(-c2ccc3c(c2)C(F)(F)c2cc(-c4ccc5nc([C@@H]6[C@H]7CC[C@H](C7)N6C(=O)[C@@H](NC(=O)OC)C(C)C)[nH]c5c4)ccc2-3)[nH]1)C(C)C [LEDIPASVIR]"
  READOUT_NAME: "log10(half-life)"
  NUMERIC_RESULT: 3.45
- COMPOUND: "COC[C@H]1C[C@@H](c2ncc(-c3ccc4c(c3)COc3cc5c(ccc6nc([C@@H]7CC[C@H](C)N7C(=O)[C@@H](NC(=O)OC)C(C)C)[nH]c65)cc3-4)[nH]2)N(C(=O)[C@H](NC(=O)OC)c2ccccc2)C1 [VELPATASVIR]"
  READOUT_NAME: "log10(half-life)"
  NUMERIC_RESULT: 2.95
- COMPOUND: "C[C@@]1(F)[C@H](O)[C@@H](CO)O[C@H]1n1ccc(=O)[nH]c1=O"
  READOUT_NAME: "log10(half-life)"
  NUMERIC_RESULT: 3.21
- COMPOUND: "COC(=O)N[C@H](C(=O)N1CCC[C@H]1c1nc(-c2ccc3c(c2)O[C@@H](c2ccccc2)n2c-3cc3cc(-c4c[nH]c([C@@H]5CCCN5C(=O)[C@@H](NC(=O)OC)C(C)C)n4)ccc32)c[nH]1)C(C)C [ELBASVIR]"
  READOUT_NAME: "log10(half-life)"
  NUMERIC_RESULT: 3.16

Lab note: next compound to report on.
[Q] // query log10(half-life) value for entry Cc1cnc(C(=O)N[C@H]2CCCCC/C=C\[C@@H]3C[C@@]3(C(=O)NS(=O)(=O)C3CC3)NC(=O)[C@@H]3C[C@@H](Oc4nc5ccccc5c5ccccc45)CN3C2=O)cn1 [PARITAPREVIR]
[A] 2.52
